tested.target: GPR40 (Homo sapiens, UniProt O14842)
Sequence (O14842 whole entry): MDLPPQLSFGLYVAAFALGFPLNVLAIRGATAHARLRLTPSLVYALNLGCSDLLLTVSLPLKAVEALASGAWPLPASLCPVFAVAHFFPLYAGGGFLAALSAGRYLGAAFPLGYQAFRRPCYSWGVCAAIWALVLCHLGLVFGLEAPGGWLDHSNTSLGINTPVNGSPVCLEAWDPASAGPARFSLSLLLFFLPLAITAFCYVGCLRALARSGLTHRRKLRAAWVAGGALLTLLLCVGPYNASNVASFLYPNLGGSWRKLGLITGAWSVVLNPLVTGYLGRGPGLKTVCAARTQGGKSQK
test.protocol: Inositol phosphate accumulation assay (A9_GPR40 cells)
Format: cell-based
Parameters: expressed in transfected cells; host or cells: CHO cells stably transfected with GPR40 and aequorin
stated.conditions: inositol phosphate assay, A9_GPR40 cells, 1 hour; read-out: IP3 EC50
Each entry below lists one item and its recorded EC50 value.

Here is how some molecules turned out for EC50.
CCC(CC(=O)O)c1cccc(OCc2ccc(-c3cccc(OC)c3)c(C3CCCC3(C)C)c2)c1 (single isomer, unassigned) : < 10 nM
CCc1cccc(-c2ccc(COc3cccc([C@@H](CC(=O)O)C4CC4)c3F)cc2[C@H]2CCCC2(C)C)c1 (single isomer, unassigned) : 10 to 100 nM
COc1ccc(F)c(-c2ccc(COc3cccc(C(CC(=O)O)C4CC4)c3)cc2C2CCCCCC2)c1 (single isomer, unassigned) : 10 to 100 nM
COc1ccc(F)c(-c2ccc(COc3cccc(C(CC(=O)O)C4CCC4)c3)cc2C2CCCCCC2)c1 (single isomer, unassigned) : 10 to 100 nM
CCCC(CC(=O)O)c1cccc(OCc2ccc(-c3cc(OC)ccc3F)c(OC3CCCCCC3)c2)c1 (single isomer, unassigned) : 100 to 1000 nM

## Task Param item = CCC(CC(=O)O)c1ccc(F)c(OCc2ccc(-c3cc(OC)ccc3F)c(C3=CCCC3(C)C)c2)c1 (single isomer, unassigned) ; retrieve measured EC50.
## Result 100 to 1000 nM

## Task Look at this molecule and give its reported EC50. CCCCCc1cc(COc2cccc(C(C)CC(=O)O)c2)ccc1-c1cc(OC)ccc1F (single isomer, unassigned)
## Result 100 to 1000 nM

## Task Reported EC50, molecule COc1ccc(F)c(-c2ccc(COc3cccc([C@@H](CC(=O)O)C4CC4)c3)cc2[C@H](OC)C(C)(C)C)c1 (single isomer, unassigned) : ____
## Result 100 to 1000 nM

## Task What does the record list as EC50 for COc1ccc(F)c(-c2ccc(COc3cccc(C(CC(=O)O)C4CCC4)c3)cc2C(C)(C)C)c1 (single isomer, unassigned) ?
## Result 10 to 100 nM

## Task Reported EC50 for COc1cccc(-c2ccc(COc3cccc(C(CC(=O)O)CC4CC4)c3)cc2C2=CCCC2(C)C)c1 (single isomer, unassigned) : what is it?
## Result 10 to 100 nM

====

Examples of compounds with documented EC50 follow.
tested.target: GPR40 (Homo sapiens)
test.protocol: Cell-based aequorin assay (CHO cells stably expressing GPR40 and aequorin)
Parameters: expressed in transfected cells; host or cells: CHO cells stably transfected with GPR40 and aequorin
stated.conditions: activation of human GPR40, CHO cells, 0.01% HSA

Answered cases to consult:
CC1(C)CCC[C@H]1c1cc(COc2cccc([C@@H](CC(=O)O)C3CC3)c2)ccc1-c1cccc(OC(F)F)c1 (single isomer, unassigned) : 100 to 1000 nM
CCCCOc1ccc(OC)cc1-c1ccc(COc2cccc(CCC(=O)O)c2)cc1C : 1000 to 10000 nM
CC1(C)CCC=C1c1cc(COc2cccc([C@@H](CC(=O)O)C3CC3)c2F)ccc1-c1cc(C(F)F)ccc1F (single isomer, unassigned) : 100 to 1000 nM
CCCCOc1cc(COc2cccc(C(C)CC(=O)O)c2)ccc1-c1cccc(F)c1 (single isomer, unassigned) : 1000 to 10000 nM
CC1(C)CCC=C1c1cc(COc2cccc([C@@H](CC(=O)O)C3CC3)c2)ccc1-c1cc(C(F)(F)F)ccc1F (single isomer, unassigned) : 1000 to 10000 nM

## Task # lookup: EC50 of CCC(CC(=O)O)c1cccc(OCc2ccc(-c3cc(OC)ccc3F)c(C(C)(C)C)c2)c1F (single isomer, unassigned)
## Result 100 to 1000 nM

## Task Bench note: what EC50 did COc1ccc(F)c(-c2ccc(COc3cccc(C(CC(=O)O)CC(C)C)c3)cc2C(C)(C)C)c1 (single isomer, unassigned) show?
## Result 1000 to 10000 nM

## Task Given the entry CCC[C@H](CC(=O)O)c1cccc(OCc2ccc(-c3cc(OC)ccc3F)c(N3CCCCC3)c2)c1 (single isomer, unassigned) , report its measured EC50.
## Result 100 to 1000 nM

## Task # lookup: EC50 of CCC[C@H](CC(=O)O)c1cccc(OCc2ccc(-c3cc(OC)ccc3F)c(COCC=C(C)C)c2)c1 (single isomer, unassigned)
## Result 1000 to 10000 nM

## Task Item CCC(CC(=O)O)c1cccc(OCc2ccc(-c3cc(OC)ccc3F)c(C(OC)C(C)(C)C)c2)c1F (single isomer, unassigned) has what recorded EC50?
## Result 100 to 1000 nM

## Task Could you tell me which EC50 is on file for CCC(CC(=O)O)c1cc(F)cc(OCc2ccc(-c3cc(OC)ccc3F)c(C3CCCC3(C)C)c2)c1F (single isomer, unassigned) [Example 101.2] ?
## Result 100 to 1000 nM

## Task Please report the recorded EC50 for COc1ccc(F)c(-c2ccc(COc3cccc([C@@H](CC(=O)O)C4CC4)c3F)cc2[C@H](OC)C(C)(C)OC)c1 (single isomer, unassigned) .
## Result 100 to 1000 nM

## Task GET /values?readout=EC50&item= COc1ccc(F)c(-c2ccc(COc3cccc([C@@H](CC(=O)O)C4CC4)c3)cc2[C@H]2OCCCC2(C)C)c1 (single isomer, unassigned) [Example 66.54]
## Result 100 to 1000 nM

## Task Recorded EC50 for CC[C@H](CC(=O)O)c1cccc(SCc2ccc(-c3cc(OC)ccc3F)c([C@H]3CCCC3(C)C)c2)c1 (single isomer, unassigned) , please?
## Result 100 to 1000 nM

## Task Entry under review: COc1cc(-c2ccc(COc3cccc(C(C)(C)CC(=O)O)c3)cc2C(OC)C(C)(C)C)c(F)cn1 (single isomer, unassigned) . Reported EC50?
## Result 100 to 1000 nM

====

tested.target: UniProt:O14842
test.protocol: Cell-based aequorin assay (CHO cells stably expressing GPR40 and aequorin)
Set-up: expressed in transfected cells; host or cells: CHO cells stably transfected with GPR40 and aequorin
stated.conditions: activation of human GPR40, CHO cells, 0.01% HSA
assay.readout: EC50

COc1cc(-c2ccc(COc3cccc([C@@H](CC(=O)O)C4CC4)c3)cc2C2=CCCC2(C)C)c(F)cn1 (single isomer, unassigned) : 100 to 1000 nM
COc1ccc(F)c(-c2ccc(COc3cccc([C@@H](CC(=O)O)C4CC4)c3)cc2[C@H](C)C(C)(C)C)c1 (single isomer, unassigned) : 100 to 1000 nM
CC1(C)CCC[C@H]1c1cc(COc2cccc([C@H](CC(=O)O)C3CC3)c2F)ccc1-c1cc(C(F)F)ccc1F (single isomer, unassigned) : 1000 to 10000 nM
C=CC[C@H](CC(=O)O)c1cccc(OCc2ccc(-c3cc(OC)ccc3F)c(OCCCC)c2)c1 (single isomer, unassigned) : 1000 to 10000 nM
CCOCc1cc(COc2cccc(C(CC)CC(=O)O)c2)ccc1-c1cc(OC)ccc1F (single isomer, unassigned) : 1000 to 10000 nM

## Task Please give the measured EC50 for this compound: CCC(CC(=O)O)c1cccc(OCc2ccc(-c3cc(OC)ccc3F)c(C3CCCC3(C)C)c2)c1F (single isomer, unassigned) [Example 100.1]
## Result 1000 to 10000 nM

## Task If you can, please state the reported EC50 value of CCCC(CC(=O)O)c1cccc(OCc2ccc(-c3cc(OC)ccc3F)c(C3=CCCCCC3)c2)c1 (single isomer, unassigned) .
## Result 100 to 1000 nM

## Task Name the recorded EC50 for CCCC(CC(=O)O)c1cccc(OCc2ccc(-c3cc(OC)ccc3F)c(C3=CCC(C)(C)CC3)c2)c1 (single isomer, unassigned) .
## Result 100 to 1000 nM

## Task // lookup EC50 for COc1ccc(F)c(-c2ccc(COc3cccc(C(CC(=O)O)C4CC4)c3F)cc2C2CCCC2(C)C)c1 (single isomer, unassigned) [Example 99.2]
## Result 100 to 1000 nM

## Task Quick one: EC50 for COc1cc(-c2ccc(COc3cccc([C@@H](CC(=O)O)C4CC4)c3F)cc2[C@H](OC)C(C)(C)C)c(F)cn1 (single isomer, unassigned) ?
## Result 1000 to 10000 nM

## Task What measured EC50 goes with "COc1ccc(F)c(-c2ccc(COc3cc(CCC(=O)O)ccn3)cc2C(C)(C)C)c1" ?
## Result 100 to 1000 nM

## Task I am curious: what EC50 value has been reported for CCCCOc1cc(COc2cccc([C@H](CC(=O)O)C3CC3)c2)ccc1-c1cc(OC)ccc1F (single isomer, unassigned) ?
## Result 1000 to 10000 nM

====

Listed here: items and their measured EC50.
tested.target: GPR40 (Homo sapiens, UniProt O14842)
test.protocol: Inositol phosphate accumulation assay (A9_GPR40 cells)
Assay type: cell-based
Design: expressed in transfected cells; host or cells: CHO cells stably transfected with GPR40 and aequorin
stated.conditions: inositol phosphate assay, A9_GPR40 cells, 1 hour; read-out: IP3 EC50
Protocol: Briefly, the Aequorin assays were performed on doubly stable CHO cells expressing GPR40 and Aequorin DNA. […] The luminescence was recorded over a period of 20 seconds with a Microlumat luminometer (Berthold). […] The inositol phosphate assay was performed on an A9 cell line stably transfected with GPR40 (A9_GPR40). The cells were incubated with different concentrations of compounds and [^3H] inositol accumulation was measured after 1 hour. […]

Reference set (2 entries):
CC[C@H](CC(=O)O)c1cccc(OCc2ccc(-c3cc(OC)ccc3F)c(C3CCCCCC3)c2)c1 (single isomer, unassigned) : 10 to 100 nM
C[C@H](CC(=O)O)c1cccc(OCc2ccc(-c3cc(O)ccc3F)c(C(C)(C)C)c2)c1 (single isomer, unassigned) : 100 to 1000 nM

Proceed to the following item.
## Task Could you tell me which EC50 is on file for COc1ccc(F)c(-c2c(F)cc(COc3cccc([C@@H](CC(=O)O)C4CC4)c3F)cc2[C@H]2CCCC2(C)C)c1 (single isomer, unassigned) ?
## Result < 10 nM
